Target: p110δ/p85α (Homo sapiens, UniProt O00329)
Sequence (O00329 whole entry, species assumed, one chain of several): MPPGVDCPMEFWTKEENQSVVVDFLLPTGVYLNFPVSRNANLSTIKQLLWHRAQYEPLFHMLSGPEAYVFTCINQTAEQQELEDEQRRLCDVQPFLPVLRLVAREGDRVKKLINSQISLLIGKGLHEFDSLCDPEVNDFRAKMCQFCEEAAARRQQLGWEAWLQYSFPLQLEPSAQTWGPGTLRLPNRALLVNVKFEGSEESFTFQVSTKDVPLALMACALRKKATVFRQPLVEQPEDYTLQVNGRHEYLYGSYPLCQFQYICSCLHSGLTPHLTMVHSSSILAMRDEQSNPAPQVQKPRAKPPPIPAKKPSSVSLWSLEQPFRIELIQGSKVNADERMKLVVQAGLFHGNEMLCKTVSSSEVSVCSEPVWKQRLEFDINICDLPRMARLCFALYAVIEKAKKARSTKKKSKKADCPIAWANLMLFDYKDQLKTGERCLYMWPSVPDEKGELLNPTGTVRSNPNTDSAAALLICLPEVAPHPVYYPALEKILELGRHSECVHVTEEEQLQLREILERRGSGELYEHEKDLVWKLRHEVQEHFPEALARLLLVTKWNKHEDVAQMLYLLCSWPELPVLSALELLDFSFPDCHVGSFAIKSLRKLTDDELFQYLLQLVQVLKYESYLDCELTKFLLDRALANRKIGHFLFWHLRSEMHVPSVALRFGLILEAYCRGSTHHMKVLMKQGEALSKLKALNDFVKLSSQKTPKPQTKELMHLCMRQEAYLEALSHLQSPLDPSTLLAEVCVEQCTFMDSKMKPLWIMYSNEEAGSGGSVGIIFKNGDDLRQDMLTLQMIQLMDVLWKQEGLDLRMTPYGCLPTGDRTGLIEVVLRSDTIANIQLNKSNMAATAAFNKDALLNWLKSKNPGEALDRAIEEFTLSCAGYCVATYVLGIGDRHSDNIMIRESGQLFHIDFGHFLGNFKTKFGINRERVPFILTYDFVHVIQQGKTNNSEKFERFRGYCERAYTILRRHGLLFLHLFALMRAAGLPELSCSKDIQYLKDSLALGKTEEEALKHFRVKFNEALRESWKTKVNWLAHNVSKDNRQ
Test: Transcreener KINASE Assay, kinase inhibition of p110δ/p85α
Conditions: read-out: PI3Kδ IC50
TEST READOUT: IC50 (nM)

COMPOUND: N#Cc1c[nH]c2ncnc(N3CCC[C@H]3c3nn4c(F)ccc4c(=O)[nH]3)c12 [Compound 106]
U: nM
IC50: 232
--
COMPOUND: C[C@H]1CCN(c2nc(N)ncc2C#N)C1c1nn2ccc(Cl)c2c(=O)n1-c1ccccc1 (stereo partly shown) [Compound 236]
U: nM
IC50: 2
--
COMPOUND: CC(Nc1ncnc2[nH]cc(F)c12)c1cc2ncc(Cl)n2c(=O)n1-c1ccccc1 (single isomer, unassigned) [Compound 451]
U: nM
IC50: 35

[a] Nc1ncc([N+](=O)[O-])c(N2CC[C@H]2c2nn3ccc(Cl)c3c(=O)n2-c2ccccc2)n1 [Compound 282]
[b] N#Cc1cnc(N)nc1N1CCC1c1nn2ccc(Cl)c2c(=O)n1CC1CC1 (stereo not shown) [Compound 373]
Query block: # query: argmin of IC50 over a and b Respond using the label that marks the chosen record.
Result block: b

====

Measurement record for p110γ (Homo sapiens, UniProt P48736); quantity recorded: pIC50.
pIC50: −log10 of the molar value.
TEST READOUT: pIC50

COMPOUND: O=c1c2cccn2nc([C@@H]2CCCN2c2ncnc3[nH]cc(Cl)c23)n1-c1ccccc1 [Compound 3]
pIC50: 6.44

[a] N#Cc1c[nH]c2ncnc(N3CCC[C@H]3c3nn4cccc4c(=O)n3-c3cccc(Cl)c3)c12 [Compound 15]
[b] CC(Nc1ncnc2[nH]cnc12)c1cn2ccc(Cl)c2c(=O)n1-c1ccc(F)cc1 (stereo not shown) [Compound 78]
Query block: # query: argmin of pIC50 over a and b Respond using the label that marks the chosen record.
Result block: a
(a: 6.51, b: 7.74)

====

Biological target: p110β/p85α (Homo sapiens, UniProt P42338)
Construct: purchased Millipore
Sequence (P42338 whole entry, species assumed): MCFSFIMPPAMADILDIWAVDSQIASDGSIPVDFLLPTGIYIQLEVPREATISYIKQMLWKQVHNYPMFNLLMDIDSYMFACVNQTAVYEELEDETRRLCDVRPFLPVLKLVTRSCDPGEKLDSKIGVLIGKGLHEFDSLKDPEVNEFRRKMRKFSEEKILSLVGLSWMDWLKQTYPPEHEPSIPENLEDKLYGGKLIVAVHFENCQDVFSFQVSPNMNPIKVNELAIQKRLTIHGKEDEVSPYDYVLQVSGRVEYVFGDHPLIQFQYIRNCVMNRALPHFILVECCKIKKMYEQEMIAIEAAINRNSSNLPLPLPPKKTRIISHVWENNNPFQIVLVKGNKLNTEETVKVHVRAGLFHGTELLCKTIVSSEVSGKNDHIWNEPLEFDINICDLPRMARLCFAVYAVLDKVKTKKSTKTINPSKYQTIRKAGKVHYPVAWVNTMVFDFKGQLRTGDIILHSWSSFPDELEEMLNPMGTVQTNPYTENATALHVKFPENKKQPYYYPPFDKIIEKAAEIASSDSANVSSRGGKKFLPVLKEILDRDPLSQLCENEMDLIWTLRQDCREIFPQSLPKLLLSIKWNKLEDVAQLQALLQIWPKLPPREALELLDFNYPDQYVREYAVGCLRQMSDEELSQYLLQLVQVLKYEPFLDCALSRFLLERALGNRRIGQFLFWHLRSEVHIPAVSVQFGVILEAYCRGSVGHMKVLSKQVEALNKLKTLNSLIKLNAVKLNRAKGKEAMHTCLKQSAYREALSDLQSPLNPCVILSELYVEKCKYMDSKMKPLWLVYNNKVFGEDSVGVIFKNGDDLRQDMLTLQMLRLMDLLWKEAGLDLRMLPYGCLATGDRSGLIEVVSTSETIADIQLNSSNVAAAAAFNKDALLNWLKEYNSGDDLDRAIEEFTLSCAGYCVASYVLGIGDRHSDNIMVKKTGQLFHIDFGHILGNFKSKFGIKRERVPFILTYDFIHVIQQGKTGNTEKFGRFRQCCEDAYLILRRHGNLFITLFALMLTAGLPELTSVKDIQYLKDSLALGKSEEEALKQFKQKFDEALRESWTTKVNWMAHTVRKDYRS
Sequence (P27986 whole entry partner, species assumed): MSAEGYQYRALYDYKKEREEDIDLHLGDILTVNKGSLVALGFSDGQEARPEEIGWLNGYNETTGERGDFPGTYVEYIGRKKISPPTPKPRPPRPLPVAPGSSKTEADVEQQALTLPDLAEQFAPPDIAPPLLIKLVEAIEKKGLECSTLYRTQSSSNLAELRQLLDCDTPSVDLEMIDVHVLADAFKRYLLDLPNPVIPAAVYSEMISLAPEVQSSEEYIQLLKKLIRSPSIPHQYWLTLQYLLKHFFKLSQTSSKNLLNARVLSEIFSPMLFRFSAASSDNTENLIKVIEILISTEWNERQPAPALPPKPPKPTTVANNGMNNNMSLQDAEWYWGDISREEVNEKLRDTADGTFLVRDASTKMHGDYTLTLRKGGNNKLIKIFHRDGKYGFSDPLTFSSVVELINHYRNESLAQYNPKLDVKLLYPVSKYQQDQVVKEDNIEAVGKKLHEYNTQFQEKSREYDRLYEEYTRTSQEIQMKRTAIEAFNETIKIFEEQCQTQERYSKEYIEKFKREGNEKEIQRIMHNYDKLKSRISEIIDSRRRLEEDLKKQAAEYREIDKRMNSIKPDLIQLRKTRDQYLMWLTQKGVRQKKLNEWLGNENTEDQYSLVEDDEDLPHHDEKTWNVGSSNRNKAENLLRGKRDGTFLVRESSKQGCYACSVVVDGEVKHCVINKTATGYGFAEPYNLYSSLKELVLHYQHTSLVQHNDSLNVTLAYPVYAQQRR
Assay: Transcreener KINASE Assay, kinase inhibition of p110β/p85α
Assay type: biochemical
Settings: @ 1 uM
TEST READOUT: PI3Kβ IH % @ 1 uM (%)

MOLECULE: C=Cc1c[nH]c2ncnc(N3CCC[C@H]3c3nn4cccc4c(=O)n3-c3ccccc3)c12 [Compound 98]
TEST READOUT: PI3Kβ IH % @ 1 uM
REPORTED RESULT: 15.2

[A] O=c1c2cccn2nc([C@@H]2CCCN2c2ncnc3[nH]cc(Cl)c23)n1-c1ccccc1 [Compound 3]
[B] N#Cc1c[nH]c2ncnc(N3CCC[C@H]3c3nn4c(F)ccc4c(=O)[nH]3)c12 [Compound 106]
Query block: # query: argmin of PI3Kβ IH % @ 1 uM over A and B Respond using the label that marks the chosen record.
Result block: A
(A: 17.8%, B: 61.9%)

[P] O=c1c2cccn2nc([C@@H]2CCCN2c2ncnc3[nH]nc(Br)c23)n1-c1ccccc1 [Compound 12]
[Q] CC(Nc1ncnc(N)c1C#N)c1cn2ccc(Cl)c2c(=O)n1-c1cc(F)cc(F)c1 (stereo not shown) [Compound 81]
Query block: # query: argmin of PI3Kβ IH % @ 1 uM over P and Q Respond using the label that marks the chosen record.
Result block: P
(P: 23.1%, Q: 79.0%)

[a] O=c1c2cccn2nc([C@@H]2CCCN2c2ncnc3[nH]cnc23)n1-c1ccccc1 [Compound 4]
[b] O=c1c2cccn2nc([C@@H]2CCCN2c2ncnc3[nH]cc(-c4cn[nH]c4)c23)n1-c1ccccc1 [Compound 99]
[c] Nc1nc(N2CCC[C@H]2c2nn3cccc3c(=O)n2-c2ccccc2)c2cn[nH]c2n1 [Compound 11]
Query block: Rank order required: PI3Kβ IH % @ 1 uM, descending. Write the labels in rank order as requested.
Result block: b, a, c

[1] COc1cccc(-n2c([C@@H]3CCCC3c3ncnc4[nH]cnc34)nn3cccc3c2=O)c1 (stereo partly shown) [Compound 20]
[2] O=c1c2c(Cl)ccn2nc([C@@H]2CC(F)(F)CN2c2ncnc3[nH]cnc23)n1Cc1ccccn1 [Compound 159]
[3] O=c1c2c(Cl)ccn2nc([C@@H]2CCCN2c2ncnc3[nH]cnc23)n1CC1CC1 [Compound 256]
[4] COc1cccc(-n2c([C@@H]3CCCN3c3ncnc(N)c3Cl)nn3cccc3c2=O)c1 [Compound 21]
Query block: Please put the entries in order of rising PI3Kβ IH % @ 1 uM. Write the labels in rank order as requested.
Result block: 4, 1, 2, 3
